biological target: T1, HLA-A*1501 (human); assay: iTopia affinity
T1 construct: possibly meant as HLA-B*1501
The binders listed here are annotated with their ED50.
quantity.measured: ED50 (µM)

# binder, numeric.result
measured = [
    ("ALFKEIFSC [cdr2 424-432 ALFKEIFSC]", 8.3),
    ("SFACLKELY [cdr2 157-165 SFACLKELY]", 5.3),
    ("AVKQRGISL [cdr2 337-345 AVKQRGISL]", 15),
    ("LLHEVDTQY [cdr2 345-353 LLHEVDTQY]", 39),
    ("RARALELEA [cdr2 244-252 RARALELEA]", 48),
    ("SQSLLEEMF [cdr2 287-295 SQSLLEEMF]", 29),
    ("QMLQSEHPF [cdr2 259-267 QMLQSEHPF]", 8.3),
    ("ASQQKILSL [cdr2 107-113 ASQQKILSL]", 24),
]

Cited source for all entries: patent US20090208538A1
